system: RAW-Dual; assay: NF-kB SEAP reporter activity, fold change vs agonist alone; cytotoxicity flag (confluency mask): not cytotoxic; higher = enhanced NF-kB activity; conditions: agonist: LPS (TLR4) 0.1 ug/mL
In all, about 2,900 compounds were measured (“NF-kB SEAP reporter activity, fold change vs agonist alone”: median about 0.99, highest 2% from about 2.6 on). This is one part of a sample in which the highest values are shown more often than they occur.
experimental readout: NF-kB SEAP reporter activity

molecule	experimental readout	recorded number
O=C(Nc1nccs1)C(c1cc(F)ccc1O)N1Cc2ccccc2C1=O (stereo not given) (library stock concentration (final ~1000-fold dilution): 10 mM)	NF-kB SEAP reporter activity	0.902
C=C1CCC2C(C)(CO)C(O)CCC2(C)C1C/C=C1/C(=O)OCC1O (stereo not given) (library stock concentration (final ~1000-fold dilution): 10 mM)	NF-kB SEAP reporter activity	0.565
CC(/C=C/C=C(\C)C(=O)OC1OC(COC2OC(CO)C(O)C(O)C2O)C(O)C(O)C1O)=C\C=C\C=C(C)\C=C\C=C(/C)C(=O)OC1OC(COC2OC(CO)C(O)C(O)C2O)C(O)C(O)C1O (stereo not given) (library stock concentration (final ~1000-fold dilution): 10 mM)	NF-kB SEAP reporter activity	1.08
C=CC(=O)N1CC(N2CCN(C(=O)CNc3cc(C4(C)CC4)c(Cl)cc3O)CC2)C1 (library stock concentration (final ~1000-fold dilution): 10 mM)	NF-kB SEAP reporter activity	0.418
CCCC(NC(=O)/C(C#N)=C/c1cccc(Br)n1)c1ccccc1 (stereo not given) (library stock concentration (final ~1000-fold dilution): 10 mM)	NF-kB SEAP reporter activity	0.416

Source listed as the supplement of paper PMC10037445.
